# TGI annotations
# Test system: MALME-3M melanoma
# ASSAY_TEXT: NCI tumour cell line growth inhibition, 48 h
REPORTED_METRIC: TGI

{"columns": ["MOL", "RESULT"],
 "data": [
  ["C/C(=N\\NC(=O)C[n+]1ccccc1)c1sc(-c2nc(C)c(/C(C)=N/NC(=O)C[n+]3ccccc3)s2)nc1C", "> 100 µM"],
  ["O=C1C[C@@H]2[C@@H](C=CC23CC3)N1O", "> 100 µM"],
  ["COc1cc2c(NCCN(C)C)nc3c4cc5c(cc4ccc3c2cc1OC)OCO5", "7.78 µM"],
  ["O=[N+]([O-])c1ccc(CSc2c3ccccc3nc3ccccc23)cc1", "6.04 µM"],
  ["O=C(Nc1ccc(-n2ccc3c(NC(=O)c4ccccc4)ncnc32)cc1)Nc1ccc(Cl)c(C(F)(F)F)c1", "4.54 µM"]
]}

---

# TGI annotations
# Tested on: HT29 colon
# ASSAY_TEXT: NCI tumour cell line growth inhibition, 48 h

{"columns": ["COMPOUND", "TGI"],
 "data": [
  ["COc1ccc(/C=C(/C(=O)N2CCN(c3ccc(C)cc3)CC2)c2cc(OC)c(OC)c(OC)c2)cc1N", "> 39.2 µM"],
  ["O=S(Nc1ccccc1)c1ccccc1Oc1ccccc1 (stereo not given)", "> 100 µM"],
  ["c1ccc(C2(c3ccccc3)S/C(=C3/SC(c4ccccc4)(c4ccccc4)c4ccccc43)c3ccccc32)cc1", "> 100 µM"],
  ["O=C(/C=C/c1ccc[nH]1)c1ccccc1", "> 100 µM"],
  ["S=C(Nc1ccc(Cl)cc1)c1ccc(CN2CCCCC2)s1", "19.5 µM"],
  ["CSc1n[nH]c2c1c(C)nn2-c1ccccc1", "> 100 µM"],
  ["CCOC(=O)NC(=O)c1cn(CC(=O)NCC(=O)NCC(=O)N2CCN(CCn3c(C)nc(C(N)=O)c3N)CC2)c(=O)[nH]c1=O", "> 100 µM"],
  ["O=C(Nc1ccc(-n2ccc3c(NC(=O)c4ccccc4)ncnc32)cc1)Nc1ccc(Cl)c(C(F)(F)F)c1", "3.14 µM"],
  ["C=CC1CC12C(=O)C1OC2(C)C2C(=O)c3c(O)cccc3C(=O)C12 (stereo not given)", "> 100 µM"],
  ["CSC1=NC(=O)CCN1C1OCC(OC(C)=O)C(OC(C)=O)C1OC(C)=O (stereo not given)", "> 31.6 µM"]
]}

---

# Tested on: DU-145 prostate
# ASSAY_TEXT: NCI tumour cell line growth inhibition, 48 h

{"columns": ["MOLECULE", "TGI"],
 "data": [
  ["CCCCCCCC(=O)SCC/C=C/[C@@H]1CC(=O)NCc2cccc(n2)C2=N[C@@](C)(CS2)C(=O)N[C@@H](C(C)C)C(=O)O1", "> 33.3 µM"],
  ["O=S(=O)(Nc1nc2ccccc2nc1Nc1cccc2ccccc12)c1ccccc1", "> 100 µM"],
  ["CCOP(=O)(OCC)c1cc2cc(O)ccc2oc1=O", "> 100 µM"],
  ["COc1ccc2nc(-c3ccc(Cl)cc3)cc(-c3nnc(SCC(=O)Nc4ccc(/C(C)=N\\O)cc4)o3)c2c1", "5.53 µM"],
  ["COc1ccc2c(c1)[n+]([O-])c(/C(C)=N/NC(N)=S)c(C)[n+]2[O-]", "> 100 µM"],
  ["O=C1CCN=C(NC(=O)C(F)(F)F)N1CCc1c[nH]c2ccccc12", "> 100 µM"],
  ["CCCCC1CCCCCCc2[nH]c(/C=C3\\N=C(c4ccc[nH]4)C=C3OC)cc21 (stereo not given)", "3.96 µM"],
  ["Oc1ccccc1/C=N/Nc1nc2ccccc2s1", "> 100 µM"],
  ["NCc1ccc(O)c(O)c1O", "> 100 µM"],
  ["C=CC(C)CCC(C/C=C(\\C)CCCC(C)C)C(=C)CCCC(C)C (stereo not given)", "> 100 µM"]
]}

The measurements presented in this section are drawn from PubChem BioAssay (NCI).
